- Test system: Danio rerio Tg(wt1b:EGFP) embryo, pronephros
- protocol: fraction of imaged embryos annotated as normal kidney; higher = less nephrotoxic; extreme values may be limits of the assay
- assayConditions: 25 µM; exposure: 24-48 hpf
Counter-ions that a name gives are not always drawn.
Quick list: fraction of imaged embryos annotated as normal kidney per entry.
parameterMeasured: fraction of imaged embryos annotated as normal kidney

compound	measuredResult
CN(C)[C@@H]1C(O)=C(C(N)=O)C(=O)[C@@]2(O)C(O)=C3C(=O)c4c(O)cccc4[C@@](C)(O)[C@H]3[C@H](O)[C@@H]12 [Oxytetracycline dihydrate]	0.909
CCCC(=O)Nc1ncnc2c1ncn2[C@@H]1O[C@@H]2COP(=O)(O)O[C@H]2[C@H]1OC(=O)CCC [Bucladesine sodium salt]	0.917
CNC(=C[N+](=O)[O-])NCCSCc1csc(CN(C)C)n1	0.917
Cc1ccnc2c1NC(=O)c1cccnc1N2C1CC1	0.917
CC(=O)O[C@]1(C(C)=O)CC[C@H]2[C@@H]3C=C(C)C4=CC(=O)CC[C@]4(C)[C@H]3CC[C@@]21C [Megestrol acetate]	0.917
CN1CCC(=C2c3ccccc3Sc3ccccc32)CC1 [Pimethixene maleate]	0.917
CCN1CCN(C(=O)N[C@@H](C(=O)N[C@@H]2C(=O)N3C(C(=O)O)=C(CSc4nnnn4C)CS[C@H]23)c2ccc(O)cc2)C(=O)C1=O [Cefoperazone dihydrate]	0.909
O=c1oc2ccccc2c(O)c1Cc1c(O)c2ccccc2oc1=O	0.9

###

- System: Danio rerio Tg(wt1b:EGFP) embryo, pronephros
- protocol: pronephric angle neck segment to proximal convoluted tubule (mean of left and right), fold change vs DMSO control; higher = larger pronephric angle
- assayConditions: 25 µM; exposure: 24-48 hpf

compound	testSystem	pronephric angle neck segment
COc1ccccc1O	Danio rerio Tg(wt1b:EGFP) embryo, pronephros	1.02
Nc1ccc(C(=O)NCC(=O)O)cc1	Danio rerio Tg(wt1b:EGFP) embryo, pronephros	0.991
NC[C@H]1O[C@H](O[C@H]2[C@H](O)[C@@H](O[C@H]3O[C@H](CO)[C@@H](O)[C@H](N)[C@H]3O)[C@H](N)C[C@@H]2N)[C@H](N)C[C@@H]1O	Danio rerio Tg(wt1b:EGFP) embryo, pronephros	1.01
CCCC1C(=O)N2C(N(C)C)=Nc3ccc(C)cc3N2C1=O (centres undefined)	Danio rerio Tg(wt1b:EGFP) embryo, pronephros	1.02

###

- Test system: Danio rerio Tg(wt1b:EGFP) embryo, pronephros
- protocol: pronephric angle neck segment to proximal convoluted tubule (mean of left and right), fold change vs DMSO control; higher = larger pronephric angle
- assayConditions: 25 µM; exposure: 24-48 hpf
Structures can show the parent of a compound that is named as a salt.
Returns label 1 if the recorded pronephric angle neck segment is greater than or equal to 1, and label 0 otherwise.

compound	cat
c1ccc(CC2=NCCN2)cc1 [Tolazoline hydrochloride]	label 0
Nc1nc(O)c2ncn(CCC(CO)CO)c2n1 [Penciclovir]	label 0
Clc1ccc(C(Cn2ccnc2)OCc2csc3c(Cl)cccc23)c(Cl)c1 (stereo not given) [Sertaconazole nitrate]	label 1
NC[C@H]1CC[C@H](C(=O)O)CC1 [Tranexamic acid]	label 1
CN(c1nccc(=O)[nH]1)C1CCN(c2nc3ccccc3n2Cc2ccc(F)cc2)CC1 [Mizolastine]	label 0
Cc1cc(-n2c(=O)[nH]c(=O)n(C)c2=O)ccc1Oc1ccc(SC(F)(F)F)cc1 [Toltrazuril]	label 1
Fc1ccc(C(c2ccc(F)cc2)N2CCN(C/C=C/c3ccccc3)CC2)cc1 [Flunarizine dihydrochloride]	label 0
C[C@]12CCC(=O)C=C1C=C[C@@H]1[C@@H]2CC[C@@]2(C)[C@H]1CC[C@@]21CCC(=O)O1 [Canrenone]	label 1
CCC1(c2ccccc2)C(=O)NCNC1=O [Primidone]	label 1
NC(=O)N1c2ccccc2CC(=O)c2ccccc21 [Oxcarbazepine]	label 0
CCCCNc1ccc(C(=O)OCCN(C)C)cc1	label 1
CN(C)CCOC1=Cc2ccccc2Sc2ccc(Cl)cc21 [Zotepine]	label 1

###

- Tested on: Danio rerio Tg(wt1b:EGFP) embryo, pronephros
- protocol: pronephric angle neck segment to proximal convoluted tubule (mean of left and right), fold change vs DMSO control; higher = larger pronephric angle
- assayConditions: 25 µM; exposure: 24-48 hpf
Counter-ions that a name gives are not always drawn.
Returns TRUE if the recorded pronephric angle neck segment is greater than or equal to 1, and FALSE otherwise.

compound	cat
CN1CCN(CC(=O)N2c3ccccc3C(=O)Nc3cccnc32)CC1 [Pirenzepine dihydrochloride]	TRUE
Nc1ccn([C@@H]2O[C@H](CO)[C@@H](O)C2(F)F)c(=O)n1 [Gemcitabine]	TRUE
CCN[C@H]1CN(CCCOC)S(=O)(=O)c2sc(S(N)(=O)=O)cc21 [Brinzolamide]	TRUE
CN1CCc2cccc3c2[C@H]1Cc1ccc(O)c(O)c1-3 [R(-) Apomorphine hydrochloride hemihydrate]	FALSE
CCCCCNC(=N)N/N=C/c1c[nH]c2ccc(OC)cc12 [Tegaserod maleate]	FALSE

###

Quick list: fraction of imaged embryos annotated as normal kidney per entry.
- Test system: Danio rerio Tg(wt1b:EGFP) embryo, pronephros
- protocol: fraction of imaged embryos annotated as normal kidney; higher = less nephrotoxic; extreme values may be limits of the assay
- assayConditions: 25 µM; exposure: 24-48 hpf
Counter-ions that a name gives are not always drawn.
parameterMeasured: fraction of imaged embryos annotated as normal kidney

compound	testSystem	measuredResult
CCCc1cc(C(N)=S)ccn1 [Prothionamide]	Danio rerio Tg(wt1b:EGFP) embryo, pronephros	0.917
CN(C)CCOC(c1ccccc1)c1ccccc1.Cn1c(=O)c2[nH]c(Cl)nc2n(C)c1=O [Dimenhydrinate]	Danio rerio Tg(wt1b:EGFP) embryo, pronephros	0.917
Cn1c(=O)c2c(ncn2CC(O)CO)n(C)c1=O (centres undefined) [Diprophylline]	Danio rerio Tg(wt1b:EGFP) embryo, pronephros	0.667
CN(C)CC/C=C1/c2ccccc2Sc2ccc(Cl)cc21 [Chlorprothixene hydrochloride]	Danio rerio Tg(wt1b:EGFP) embryo, pronephros	0.727
CCCCC1C(=O)N(c2ccccc2)N(c2ccc(O)cc2)C1=O (centres undefined) [Oxyphenbutazone]	Danio rerio Tg(wt1b:EGFP) embryo, pronephros	1
O=C(O)c1cc(-c2ccc(F)cc2F)ccc1O [Diflunisal]	Danio rerio Tg(wt1b:EGFP) embryo, pronephros	0.0833
COCCCC/C(=N\OCCN)c1ccc(C(F)(F)F)cc1 [Fluvoxamine maleate]	Danio rerio Tg(wt1b:EGFP) embryo, pronephros	1
C=CC1=C(C(=O)O)N2C(=O)[C@@H](NC(=O)/C(=N\OCC(=O)O)c3csc(N)n3)[C@H]2SC1 [Cefixime]	Danio rerio Tg(wt1b:EGFP) embryo, pronephros	0.75
COc1c(N2CCNC(C)C2)c(F)cc2c(=O)c(C(=O)O)cn(C3CC3)c12 (centres undefined) [Gatifloxacin]	Danio rerio Tg(wt1b:EGFP) embryo, pronephros	0.917
CN(C)CCC(c1ccc(Br)cc1)c1ccccn1 (centres undefined) [Brompheniramine maleate]	Danio rerio Tg(wt1b:EGFP) embryo, pronephros	1
CC(Oc1c(Cl)cccc1Cl)C1=NCCN1 (centres undefined) [Lofexidine]	Danio rerio Tg(wt1b:EGFP) embryo, pronephros	0.833
CC(C)NCC(O)c1ccc2ccccc2c1 (centres undefined) [Pronethalol hydrochloride]	Danio rerio Tg(wt1b:EGFP) embryo, pronephros	0.833
CC[C@H](C)C(=O)O[C@H]1CCC=C2C=C[C@H](C)[C@H](CC[C@@H]3C[C@@H](O)CC(=O)O3)[C@H]21 [Mevastatin]	Danio rerio Tg(wt1b:EGFP) embryo, pronephros	0
C[C@H]1c2cccc(O)c2C(=O)C2=C(O)[C@]3(O)C(=O)C(C(N)=O)=C(O)[C@@H](N(C)C)[C@@H]3[C@@H](O)[C@@H]21 [Doxycycline hydrochloride]	Danio rerio Tg(wt1b:EGFP) embryo, pronephros	0.833
C[C@]12CC[C@@H]3c4ccc(OS(=O)(=O)O)cc4CC[C@H]3[C@@H]1CCC2=O [Estropipate]	Danio rerio Tg(wt1b:EGFP) embryo, pronephros	0.75
Nc1nc2c(ncn2COCCO)c(=O)[nH]1 [Acyclovir]	Danio rerio Tg(wt1b:EGFP) embryo, pronephros	0.583
CO[C@@]1(NC(=O)C(C(=O)O)c2ccc(O)cc2)C(=O)N2C(C(=O)O)=C(CSc3nnnn3C)CO[C@@H]21 (some centres undefined) [Moxalactam disodium salt]	Danio rerio Tg(wt1b:EGFP) embryo, pronephros	0.917
NC(Cc1cc(I)c(Oc2cc(I)c(O)c(I)c2)c(I)c1)C(=O)O (centres undefined) [Thyroxine (L)]	Danio rerio Tg(wt1b:EGFP) embryo, pronephros	0.75
CC(=O)O[C@]1(C(C)=O)CC[C@H]2[C@@H]3C=C(C)C4=CC(=O)CC[C@@H]4[C@H]3CC[C@@]21C [Nomegestrol acetate]	Danio rerio Tg(wt1b:EGFP) embryo, pronephros	0.909
CCN(CC)C(C)CN1c2ccccc2Sc2ccccc21 (centres undefined) [Ethopropazine hydrochloride]	Danio rerio Tg(wt1b:EGFP) embryo, pronephros	0.917
CN(C)CCN(Cc1cccs1)c1ccccn1 [Methapyrilene hydrochloride]	Danio rerio Tg(wt1b:EGFP) embryo, pronephros	0.917
CC(C(=O)O)c1ccc(-c2ccccc2)c(F)c1 (centres undefined) [Flurbiprofen]	Danio rerio Tg(wt1b:EGFP) embryo, pronephros	0
C=CCOC(Cn1ccnc1)c1ccc(Cl)cc1Cl (centres undefined) [Enilconazole]	Danio rerio Tg(wt1b:EGFP) embryo, pronephros	1
Nc1ccccc1S(N)(=O)=O [2-Aminobenzenesulfonamide]	Danio rerio Tg(wt1b:EGFP) embryo, pronephros	0.917
